Recorded values, source the supplement of paper PMC11316812.

System: hTERT-HMEC;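 further: secreted proteins added to cultured cells, EdU pulse at the end, nuclei found by Hoechst imaging, EdU status from nuclear versus surrounding ring intensity ratio, PBS as neutral control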
Assay Details: percentage of EdU-negative (G0-arrested) nuclei per well, 72 h; higher = more G0 arrest
Test Parameters: protein concentration 0.3125 µM; reference: sequence is the full UniProt precursor, the tested protein was the secreted form or ectodomain
Experimental Endpoint: percentage of EdU-negative (%)

residues="MRIWWLLLAIEICTGNINSQDTCRQGHPGIPGNPGHNGLPGRDGRDGAKGDKGDAGEPGRPGSPGKDGTSGEKGERGADGKVEAKGIKGDQGSRGSPGKHGPKGLAGPMGEKGLRGETGPQGQKGNKGDVGPTGPEGPRGNIGPLGPTGLPGPMGPIGKPGPKGEAGPTGPQGEPGVRGIRGWKGDRGEKGKIGETLVLPKSAFTVGLTVLSKFPSSDMPIKFDKILYNEFNHYDTAAGKFTCHIAGVYYFTYHITVFSRNVQVSLVKNGVKILHTKDAYMSSEDQASGGIVLQLKLGDEVWLQVTGGERFNGLFADEDDDTTFTGFLLFSSP [P0C862]" reported=7.18
residues=MIPAKDMAKVMIVMLAICFLTKSDGKSVKKRSVSEIQLMHNLGKHLNSMERVEWLRKKLQDVHNFVALGAPLAPRDAGSQRPRKKEDNVLVESHEKSLGEADKADVNVLTKAKSQ reported=6.37
residues=MARSNLPLALGLALVAFCLLALPRDARARPQERMVGELRDLSPDDPQVQKAAQAAVASYNMGSNSIYYFRDTHIIKAQSQLVAGIKYFLTMEMGSTDCRKTRVTGDHVDLTTCPLAAGAQQEKLRCDFEVLVVPWQNSSQLLKHNCVQM reported=6.46
residues=MALPFVLLMALVVLNCKSICSLGCDLPQTHSLSNRRTLMIMAQMGRISPFSCLKDRHDFGFPQEEFDGNQFQKAQAISVLHEMIQQTFNLFSTKDSSATWDETLLDKFYTELYQQLNDLEACMMQEVGVEDTPLMNVDSILTVRKYFQRITLYLTEKKYSPCAWEVVRAEIMRSFSLSANLQERLRRKE reported=28.6
residues=MSRLPVLLLLQLLVRPGLQAPMTQTTPLKTSWVNCSNMIDEIITHLKQPPLPLLDFNNLNGEDQDILMENNLRRPNLEAFNRAVKSLQNASAIESILKNLLPCLPLATAAPTRHPIHIKDGDWNEFRRKLTFYLKTLENAQAQQTTLSLAIF reported=4.85
residues=MANRGPAYGLSREVQQKIEKQYDADLEQILIQWITTQCRKDVGRPQPGRENFQNWLKDGTVLCELINALYPEGQAPVKKIQASTMAFKQMEQISQFLQAAERYGINTTDIFQTVDLWEGKNMACVQRTLMNLGGLAVARDDGLFSGDPNWFPKKSKENPRNFSDNQLQEGKNVIGLQMGTNRGASQAGMTGYGMPRQIL reported=5.19
residues="MTLLPGLLFLTWLHTCLAHHDPSLRGHPHSHGTPHCYSAEELPLGQAPPHLLARGAKWGQALPVALVSSLEAASHRGRHERPSATTQCPVLRPEEVLEADTHQRSISPWRYRVDTDEDRYPQKLAFAECLCRGCIDARTGRETAALNSVRLLQSLLVLRRRPCSRDGSGLPTPGAFAFHTEFIHVPVGCTCVLPRSV [Q9P0M4]" reported=5.3
